target desc: T1, recombinant human IL-36R extracellular domain expressed with a C-terminal myc-myc-hexahistidine tag (human, UniProt Q9HB29 20-337)
T1 construct: also called hIL-36R-MMH; hIL-36R.mmH
T1 sequence (Q9HB29 other isoform, or with tags, fused parts or gaps limits assumed): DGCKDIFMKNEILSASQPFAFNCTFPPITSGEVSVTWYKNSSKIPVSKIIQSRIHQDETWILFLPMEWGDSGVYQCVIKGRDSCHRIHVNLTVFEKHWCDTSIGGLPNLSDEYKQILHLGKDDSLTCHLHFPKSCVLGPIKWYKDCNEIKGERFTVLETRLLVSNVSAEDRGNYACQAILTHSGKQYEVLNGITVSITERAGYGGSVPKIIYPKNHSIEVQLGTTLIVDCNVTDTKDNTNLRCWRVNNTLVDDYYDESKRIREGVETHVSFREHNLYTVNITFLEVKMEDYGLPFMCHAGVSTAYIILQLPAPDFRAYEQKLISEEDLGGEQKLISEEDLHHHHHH
protocol text: SPR (Biacore 4000), mAb captured on anti-human Fc, 37°C
measured quantity: koff (s⁻¹)
Record the value in s⁻¹, omitting the unit from your answer.

Qu. Bench note: what koff did H4H14758P (antibody, human IgG4 S228P, kappa, V domains shown) VH: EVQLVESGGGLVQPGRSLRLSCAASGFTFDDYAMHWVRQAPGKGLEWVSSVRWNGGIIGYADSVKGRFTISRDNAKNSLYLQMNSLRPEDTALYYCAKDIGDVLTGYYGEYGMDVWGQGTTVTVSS VL: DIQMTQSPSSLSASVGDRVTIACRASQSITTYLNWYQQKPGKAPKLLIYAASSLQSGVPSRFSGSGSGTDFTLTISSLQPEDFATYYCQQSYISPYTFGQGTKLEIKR show?
Ans. 0.00237
